Target: human PPARγ (182–505aa) ligand binding domain (Homo sapiens, UniProt P37231)
Construct: γ(182–505aa); expressed in transfected cells; host or cells: COS-7
Sequence (P37231 182-505): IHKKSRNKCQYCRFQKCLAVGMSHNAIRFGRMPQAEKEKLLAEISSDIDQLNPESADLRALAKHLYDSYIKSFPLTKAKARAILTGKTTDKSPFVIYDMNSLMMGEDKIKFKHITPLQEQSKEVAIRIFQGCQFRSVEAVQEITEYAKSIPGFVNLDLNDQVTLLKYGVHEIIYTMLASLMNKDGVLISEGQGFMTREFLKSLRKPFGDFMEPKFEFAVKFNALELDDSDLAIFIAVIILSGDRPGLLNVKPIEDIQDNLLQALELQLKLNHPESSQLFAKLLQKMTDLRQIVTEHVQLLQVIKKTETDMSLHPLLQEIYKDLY
Assay: PPAR transfection (Gal4-LBD luciferase reporter) assay, hPPARγ
Format: cell-based
Settings: transfected COS-7 cells, 16 hours, luciferase activity; read-out: hPPAR; EC50 γ (agonist activity)
quantity_name: pEC50
Numbers only, as −log10 of the molar value.

> print(dat)
                                   compound                             tested.target  measured.result
1  CCC(Oc1cccc(CCN(CCCOc2ccccc2)c2nc3cc(F)ccc3o2)c1)C(=O)O (stereo not drawn) [Example 39]  human PPARγ (182–505aa) ligand binding domain (Homo sapiens, UniProt P37231)             5.04

So what's the measured pEC50 for this one? CC(C)(Oc1ccc(CCCN(CCc2ccccc2)C(=O)c2nc3ccccc3s2)cc1)C(=O)O [Compound B, reference compound]
6.15
